- Tested on: SNB-19
- procedure-details: NCI tumour cell line growth inhibition, 48 h
Active and inactive are the calls of the source. Rule as the data show it: active = GI50 up to about 1.1 µM and inactive = higher.
measured-parameter: GI50

Some solved entries appear below for comparison.
{"compound": "COc1cccc(-c2cc(O)c3cc(N4CCN(C)CC4)ccc3n2)c1", "result": "2.77 µM (inactive)"}
{"compound": "C/C(=C\\Cc1cc(O)ccc1O)CCc1c(C)c(O)c(O)c(C=O)c1C", "result": "35.2 µM (inactive)"}
{"compound": "CCCCCCCC(CC(=O)NC(CO)C(=O)NC(CO)CC(C)C)OC(=O)CC(CCCCCCC)OC(=O)CC(CCCCCCC)OC1OC(C)C(O)C(OC2OC(C)C(OC(C)=O)C(O)C2O)C1O (stereo not drawn)", "result": "5.27 µM (inactive)"}
{"compound": "O=C1c2ccc(O)c(O)c2C(=O)c2c(O)ccc(O)c21", "result": "29 µM (inactive)"}
{"compound": "CCOC(=O)/C(C#N)=C\\Sc1ccccc1", "result": "33.5 µM (inactive)"}
{"compound": "O=S(=O)(O)Oc1cc2c(c(OS(=O)(=O)O)c1)C[C@H](OS(=O)(=O)O)[C@@H](c1ccc(OS(=O)(=O)O)c(OS(=O)(=O)O)c1)O2", "result": "> 100 µM (inactive)"}

Task: Need GI50 of O=C(Sc1n[nH]c(=O)[nH]c1=O)c1cccc2nc3ccccc3nc12 , thanks.
Result: > 100 µM (inactive)

Task: What do we get for COC(=O)[C@@H](NC(=O)N(CCC#N)CCCN(C(=O)N[C@H](Cc1ccccc1)C(=O)OC)c1ccccc1)C(C)C ?
Result: > 100 µM (inactive)

###

- Test system: HOP-62
- procedure-details: NCI tumour cell line growth inhibition, 48 h
Calls of active or inactive are those of the source. No stated cut-off is given here; in the data, active = GI50 up to about 1.1 µM and inactive = higher.
measured-parameter: GI50

{"compound": "CCCCC(=O)Oc1ccc2c(C)cc(=O)oc2c1", "tested-target": "HOP-62", "GI50": "> 100 µM (inactive)"}
{"compound": "Cc1cccc2c(=O)c3c(O)cc(O)cc3n(C)c12", "tested-target": "HOP-62", "GI50": "> 100 µM (inactive)"}
{"compound": "COc1ccccc1NC(=O)CC(=O)NNCC(=O)Nc1nc(-c2ccccc2)cs1", "tested-target": "HOP-62", "GI50": "> 100 µM (inactive)"}

Task: Record lookup: for HOP-62, what GI50 belongs to COc1cccc(-c2cc(O)c3cc4c(cc3n2)OCO4)c1 ?
Result: 0.116 µM (active)

Task: What do we get for CCCN1CN(C(C(=O)N[C@@H]2C(=O)N3C2SC(C)(C)C3C(=O)O)c2ccc(O)cc2)CSC1=S (some centres undefined) ?
Result: > 100 µM (inactive)

Task: What do we get for CCCC(=O)N[C@@H](Cc1cc(I)c(O)c(I)c1)C(=O)NCCCNCCCCNCCCNC(=O)[C@@H](N)CCCN=C(N)N ?
Result: 33.8 µM (inactive)

Task: What do we get for COc1c(N2CCCCC2)c2c(=O)c3ccccc3oc2c2c3ccccc3n(C)c12 ?
Result: > 100 µM (inactive)

Task: What do we get for Cc1cc(C)c2c(O)cc(-c3cccc(Cl)c3)nc2n1 ?
Result: 0.438 µM (active)

Task: What do we get for O=C1c2ccccc2C(=O)N1C/C=N/NS(=O)(=O)c1ccc(Cl)cc1 ?
Result: > 100 µM (inactive)

###

- Tested on: MDA-N
- procedure-details: NCI tumour cell line growth inhibition, 48 h
Calls of active or inactive are those of the source. No stated cut-off is given here; in the data, active = GI50 up to about 1.1 µM and inactive = higher.
Outcome (select one): active, inactive

Solved cases below.
{"compound": "O=C(NC(=S)Nc1ccc(Br)cc1)c1ccc2c(c1)Sc1ccccc1O2", "qualitative-label": "inactive"}
{"compound": "Cc1ccc(S(=O)(=O)NCCSS(=O)(=O)c2ccc(C)cc2)cc1", "qualitative-label": "inactive"}
{"compound": "C[C@]12CC[C@@H]3c4ccc(O)cc4CC[C@H]3[C@@H]1CC[C@@H]2OC(=O)CCc1ccccc1", "qualitative-label": "inactive"}
{"compound": "O=CC(NC(=O)N(CCCl)N=O)C(O)C(O)C(O)CO (stereo not given)", "qualitative-label": "inactive"}
{"compound": "COC(=O)C1=C(O)CCCC(C2CCCCC(=O)C2C(=O)OC)=C1 (stereo not given)", "qualitative-label": "inactive"}

Task: # lookup: test call for CCCCC(=O)Oc1ccc2c(C)cc(=O)oc2c1
Result: inactive

Task: What do we get for COc1cc(C(=O)N(C(=S)OC23CC4CC(CC(C4)C2)C3)c2ccccc2)cc(OC)c1OC ?
Result: inactive

Task: What do we get for O=c1oc2ccc([N+](=O)[O-])cc2c(Nc2ccc3c(c2)Oc2ccccc2O3)c1[N+](=O)[O-] ?
Result: inactive

Task: What do we get for CCOc1ccc(NC(=S)N/C=C(/C(C)=O)C(=O)Nc2ccccc2C)cc1 ?
Result: inactive

###

- Tested on: UACC-62
- procedure-details: NCI tumour cell line growth inhibition, 48 h
Active and inactive are the calls of the source. No stated cut-off is given here; in the data, active = GI50 up to about 1.1 µM and inactive = higher.
measured-parameter: GI50

{"compound": "COc1cccc(C2N3CCCCC3[C@@H]3c4[nH]c5ccccc5c4CCN23)c1OC (some centres undefined)", "GI50": "11.6 µM (inactive)"}
{"compound": "O=C(Nc1ccc([N+](=O)[O-])cc1)C(=O)C(C(=O)c1ccccc1F)C1OC(=O)c2ccccc21 (centres undefined)", "GI50": "25.2 µM (inactive)"}
{"compound": "CCC1c2[nH]c3ccccc3c2C[C@H]2C(=O)NC(Cc3ccccc3)C(=O)N12 (some centres undefined)", "GI50": "17.2 µM (inactive)"}

Task: Need GI50 of Cc1[nH]c(=O)nc(N(CCO)/N=C/c2ccccc2Cl)c1C(=O)Nc1cc(Cl)cc(Cl)c1 , thanks.
Result: > 100 µM (inactive)

Task: What do we get for O=C(O)/C=C/c1ccc(O)c(O)c1 ?
Result: > 100 µM (inactive)

Task: What do we get for O=C(OCCN=C1c2ccccc2CCc2ccccc21)c1cc([N+](=O)[O-])cc([N+](=O)[O-])c1 ?
Result: > 31.6 µM (inactive)

Task: What do we get for CC1(C)C(=S)C(C)(C)C1=S ?
Result: > 100 µM (inactive)

Task: What do we get for CN1CCN(c2ccc3nc(C4=C(O)C(=O)[C@@H]5C(=C4O)N=C(CO)N5C)[nH]c3n2)CC1 ?
Result: 33.3 µM (inactive)

Task: What do we get for O=C(CC(=O)C1CCOC1=O)C(=O)Nc1ccc(Cl)cc1 (centres undefined) ?
Result: > 100 µM (inactive)

###

- Test system: A498
- procedure-details: NCI tumour cell line growth inhibition, 48 h
Calls of active or inactive are those of the source. No stated cut-off is given here; in the data, active = GI50 up to about 1.1 µM and inactive = higher.
measured-parameter: GI50

Some solved entries appear below for comparison.
{"molecule": "COC(=O)N/N=C(\\C)C(CN1CCOCC1)C(c1ccccc1)c1cc2ccccc2oc1=O (stereo not given)", "tested-target": "A498", "GI50": "> 100 µM (inactive)"}
{"molecule": "CCCCNS(=O)(=O)c1ccc(-c2ccc3c(c2)-c2ccc(S(=O)(=O)NCCCC)cc2S3(=O)=O)cc1", "tested-target": "A498", "GI50": "11.4 µM (inactive)"}
{"molecule": "O=P1(Cc2ccccc2)c2ccccc2-c2ccccc21", "tested-target": "A498", "GI50": "7.85 µM (inactive)"}

Task: Need GI50 of CCCCC(=O)Oc1ccc2c(C)cc(=O)oc2c1 , thanks.
Result: > 100 µM (inactive)

Task: What do we get for COc1cccc(C2c3cc4c(cc3OC(NNS(=O)(=O)c3ccc(C)cc3)C2C)OCO4)c1O (stereo not given) ?
Result: 25.5 µM (inactive)

Task: What do we get for Cc1ccc(S(=O)(=O)c2ccccc2[N+](=O)[O-])cc1 ?
Result: > 100 µM (inactive)

Task: What do we get for OCc1ccccc1O[C@H]1O[C@H](CO)[C@@H](O)[C@H](O)[C@H]1O ?
Result: > 100 µM (inactive)

Task: What do we get for O=C(Sc1n[nH]c(=O)[nH]c1=O)c1cccc2nc3ccccc3nc12 ?
Result: > 100 µM (inactive)

Task: What do we get for CCCCCCCC/C=C\CCCCCCC(F)C(=O)O (stereo not given) ?
Result: > 12.5 µM (inactive)

Task: What do we get for CCOC(=O)C1C(=O)CC(C)(O)C(C(=O)OCC)C1c1ccc(N(C)C)cc1 (stereo not given) ?
Result: > 100 µM (inactive)

###

- Tested on: DMS-114
- procedure-details: NCI tumour cell line growth inhibition, 48 h
The source made the active and inactive calls. Rule as the data show it: active = GI50 up to about 1.1 µM and inactive = higher.
Outcome (select one): yes for active, no for inactive

{"compound": "CCOC(=O)/C(=C/c1ccc(C(=O)OC)cc1)N(CC)CC", "qualitative-label": "no"}
{"compound": "CCCCNS(=O)(=O)c1ccc(-c2ccc3c(c2)-c2ccc(S(=O)(=O)NCCCC)cc2S3(=O)=O)cc1", "qualitative-label": "no"}
{"compound": "CCOC(=O)NC(=O)c1cn(C2OC(CO)C(O)C2O)c(=O)[nH]c1=O (stereo not given)", "qualitative-label": "no"}

Task: # lookup: test call for C/C=C/C1(NS(=O)(=O)c2ccc(C)cc2)CCC(C(C)(C)C)CC1 (stereo not given)
Result: no
